# TARGET_OR_TEST_SYSTEM: UniProt:P08311
# Sequence (P08311 21-255): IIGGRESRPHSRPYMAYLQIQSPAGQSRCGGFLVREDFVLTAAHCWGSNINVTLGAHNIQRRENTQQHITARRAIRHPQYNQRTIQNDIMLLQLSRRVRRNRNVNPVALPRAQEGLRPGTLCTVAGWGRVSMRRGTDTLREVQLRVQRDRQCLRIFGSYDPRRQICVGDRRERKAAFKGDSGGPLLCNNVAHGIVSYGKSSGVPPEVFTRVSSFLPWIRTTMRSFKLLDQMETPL
# MEASUREMENT_NOTES: Kinetic progress curves (kapp, mechanism)
# Type: biochemical
# Parameters: Cathepsin G (cathepsin G human neutrophil, Sigma-Aldrich); purchased Sigma-Aldrich; host or cells: human neutrophil
# STATED_CONDITIONS: defined by the progress curves: slow-binding (Rev.) or irreversible (Irrev.)
MEASURED_METRIC: CatG mechanism of inhibition

Worked set:
C#CCCCOC(=O)NC(CCCNC(=N)N)P(=O)(Oc1ccc(Cl)cc1)Oc1ccc(Cl)cc1 (stereo not drawn) [33b]; * ^d Rev.
C#CCCCOC(=O)NC(CCCNC(=N)N)P(=O)(Oc1ccccc1)Oc1ccccc1 (stereo not drawn) [32b]; * ^d Rev.
C#CCCCOC(=O)NC(c1ccc(NC(=N)N)cc1)P(=O)(Oc1ccccc1)Oc1ccccc1.O=C(O)C(F)(F)F (stereo not drawn) [37b]; Irrev.
C[C@@H]1NC(=O)N[C@@H]1CCCCCC(=O)NCCOCCOCCOCCn1cc(CCCOC(=O)NC(c2ccc(NC(=N)N)cc2)P(=O)(Oc2ccccc2)Oc2ccccc2)nn1 (stereo partly drawn) [55b]; Irrev.
C[C@@H]1NC(=O)N[C@@H]1CCCCCC(=O)NCCOCCOCCOCCn1cc(CCCOC(=O)NC(Cc2ccc(NC(=N)N)cc2)P(=O)(Oc2ccccc2)Oc2ccccc2)nn1 (stereo partly drawn) [50b]; * ^d Rev.
C#CCCCOC(=O)NC(Cc1ccc(NC(=N)N)cc1)P(=O)(Oc1ccccc1)Oc1ccccc1 (stereo not drawn) [34b]; * ^d Rev.
CC(=O)Nc1ccc(OP(=O)(Oc2ccc(NC(C)=O)cc2)C(Cc2ccc(NC(=N)N)cc2)NC(=O)OCCCc2cn(CCOCCOCCOCCNC(=O)CCCCC[C@H]3NC(=O)N[C@H]3C)nn2)cc1 (stereo partly drawn) [52b]; * ^d Rev.
C#CCCCOC(=O)NC(c1ccc(NC(=N)N)cc1)P(=O)(Oc1ccc(NC(C)=O)cc1)Oc1ccc(NC(C)=O)cc1 (stereo not drawn) [38b]; Irrev.
C[C@@H]1NC(=O)N[C@@H]1CCCCCC(=O)NCCOCCOCCOCCn1cc(CCCOC(=O)NC(Cc2ccc(NC(=N)N)cc2)P(=O)(Oc2ccc(Cl)cc2)Oc2ccc(Cl)cc2)nn1 (stereo partly drawn) [54b]; * ^d Rev.
C#CCCCOC(=O)NC(Cc1ccc(NC(=N)N)cc1)P(=O)(Oc1ccc(NC(C)=O)cc1)Oc1ccc(NC(C)=O)cc1 (stereo not drawn) [35b]; Rev.

QUERY: What value of CatG mechanism of inhibition has been reported for the following molecule? CC(=O)Nc1ccc(OP(=O)(Oc2ccc(NC(C)=O)cc2)C(NC(=O)OCCCc2cn(CCOCCOCCOCCNC(=O)CCCCC[C@H]3NC(=O)N[C@H]3C)nn2)c2ccc(NC(=N)N)cc2)cc1 (stereo partly drawn) [56b]
RESULT: Irrev.

QUERY: What value of CatG mechanism of inhibition has been reported for the following molecule? C#CCCCOC(=O)NC(Cc1ccc(NC(=N)N)cc1)P(=O)(Oc1ccc(Cl)cc1)Oc1ccc(Cl)cc1 (stereo not drawn) [36b]
RESULT: * ^d Rev.
